# subject-of-test: glutathione S-transferase (GST)-fused full-length human Syk protein (Homo sapiens, UniProt P43405)
# Construct: (GST)-fused full-length human Syk protein; GST (glutathione S-transferase); purchased Carna Biosciences
# method-notes: Syk enzyme assay
# Assay type: biochemical
# condition-parameters: Syk enzyme assay, Test Example 1; read-out: IC50 of Syk-inhibitory activity
Items are presented alongside their recorded IC50.
reported-metric: IC50

>>> assay_value("COCCOc1nc2ccc(Nc3nc(NC4CCCCC4N)c(F)cc3C(N)=O)cc2nc1OCCOC (centres unmarked) [Example 002-121]")
"100 to 1000 nM"
>>> assay_value("NC(=O)c1cc(F)c(NC(Cc2ccccc2)C(N)=O)nc1Nc1ccc2ncsc2c1 (centres unmarked) [Example 012-006]")
"10 to 50 nM"
>>> assay_value("NC(=O)c1cc(F)c(N[C@@H]2CCCC[C@@H]2N)nc1Nc1cncc(Cl)c1 (relative stereo) [Example 004-097]")
"< 10 nM"
>>> assay_value("CC[C@@H](Nc1nc(Nc2ccnc(-n3nccn3)c2)c(C(N)=O)cc1F)[C@H](C)N [Example 006-254]")
"10 to 50 nM"
>>> assay_value("NC(=O)c1cc(F)c(NC2CCCCC2N)nc1Nc1cncc(C2CCCCC2)c1 (centres unmarked) [Example 002-096]")
"10 to 50 nM"
>>> assay_value("Cc1ccncc1Nc1nc(N[C@@H]2CCCC[C@@H]2N)c(F)cc1C(N)=O [Example 004-019]")
"10 to 50 nM"
>>> assay_value("CCCC[C@H](CN)Nc1nc(Nc2cnc3cc(OC)ccc3c2)c(C(N)=O)cc1F [Example 006-293]")
"< 10 nM"
>>> assay_value("CC[C@H](N)[C@@H](C)Nc1nc(Nc2ccc3ncccc3c2)c(C(N)=O)cc1F [Example 006-198]")
"< 10 nM"

----------
Items are presented alongside their recorded IC50.
# subject-of-test: glutathione S-transferase (GST)-fused full-length human Syk protein (Homo sapiens, UniProt P43405)
# Construct: (GST)-fused full-length human Syk protein; GST (glutathione S-transferase); purchased Carna Biosciences
# method-notes: Syk enzyme assay
# Format: biochemical
# condition-parameters: Syk enzyme assay, Test Example 1; read-out: IC50 of Syk-inhibitory activity
# Procedure: A glutathione S-transferase (GST)-fused full-length human Syk protein (Carna Biosciences), which had been generated using a Baculovirus expression system, was used in the Syk enzyme assay. 15 μl of a reaction solution (1.2 ng Syk, 20 mM HEPES, 10 mM MgCl2, 50 mM NaCl, 2 mM DTT, 0.05% BSA, pH 7.0) containing a Syk protein and a predetermined concentration of a test compound was shaken for 2 minutes, and it was then left at rest at room temperature for 13 minutes. […]
reported-metric: IC50

>>> assay_value("NC(=O)c1cc(F)c(N[C@@H]2CCCC[C@@H]2N)nc1Nc1cnc2c(N)cccc2c1 (relative stereo)")
"< 10 nM"
>>> assay_value("NC(=O)c1cc(F)c(N[C@@H]2CCCC[C@@H]2N)nc1Nc1ccc2c(c1)c(F)nn2C1CC1")
"< 10 nM"
>>> assay_value("CCCc1nn(C2CC2)c2ccc(Nc3nc(N[C@H](CC4CC4)[C@H](C)N)c(F)cc3C(N)=O)cc12")
"< 10 nM"
>>> assay_value("CCc1ncc(Nc2nc(N[C@@H]3CCCC[C@@H]3N)c(F)cc2C(N)=O)cc1F")
"10 to 50 nM"
>>> assay_value("COC[C@@H](Nc1nc(Nc2ccnc(OC)c2)c(C(N)=O)cc1F)[C@H](C)N")
"10 to 50 nM"
>>> assay_value("COCCOc1ccc(-c2cncc(Nc3nc(N[C@@H]4CCCC[C@@H]4N)c(F)cc3C(N)=O)c2)cc1 (relative stereo)")
"< 10 nM"
